molecular target: CaHof1; assay: SPOT peptide array binding signal intensity (averaged, normalized) (arbitrary units (background-subtracted, floor 0; scale differs between SH3 domains)); higher = stronger binding of the SH3 domain to the peptide
Reported SPOT peptide array binding signal intensity values for the following binders.
measure name: SPOT peptide array binding signal intensity

binder	observed
HKVLRPFLLRRLKKD	7.63e-06
LPMNIQPDLPPRKIM	≤ 0
RAPPPVPKKPSSRIA	≤ 0
PPIPIVPSSPAPPLP	≤ 0
GSKSGPPPRPKKPST	1.5
DLFKPLPEPPTELGR	1
KNPRRQLQIPRQQPS	≤ 0
IVNKPLPPLPVAGSS	55.2
QQNRPLPQLPNRNNR	17
VNIPSPSSSPPPIPK	0.5
QFDLKMPSKPIHNLK	≤ 0
IKKRNKIRLPSGSPE	1.25
RPKRRAPPPVPKKPS	0.5
GKFIPSRPAPKPPSS	0.5
GAGERPRLVPRPINV	0.5
